- PROCEDURE TEXT: Human pregnane X receptor (PXR) small molecule agonists, qHTS cell viability counter screen (AID 1346977); further: nearly all actives have a fitted effect of over 50% in size
- TEST CONDITIONS: PXR-Luc HepG2 viability, CellTiter-Fluor, 24 h; series mostly up to 92.4 µM
Records with an inconclusive call do not appear. Active and inactive are the calls of the source. The call rests on the fitted dose curve; in most records, active means well fitted cell-killing curve with a large enough effect in the repeat runs; inconclusive means weak or mixed curves, or effect the other way; inactive means flat fitted curve, though single readings scatter.
Select the matching outcome among Yes (active), No (inactive)

Illustrative cases are given below, each with its answer.
[[record]]
molecule = "O=C(O)c1ccc(OCCCOc2ccc(C(=O)O)cc2)cc1"
label_class = "No"

[[record]]
molecule = "c1ccc2c(c1)CCc1ccccc1N2"
label_class = "No"


Answer briefly: the call reported for `O=C1c2ccccc2C(=O)C1c1ccc(Br)cc1` in this assay.
No

Identify the outcome logged in this assay for the molecule shown: `O[C@@H]1CO[C@H]2[C@@H]1OC[C@@H]2O`
No

Call for entry `CCCCCCCCCI` :
No

Hey, what did the test say about `CCOC(=O)c1ccc(OCCN2C[C@H](O)[C@@H](O)[C@H](O)[C@H]2CO)cc1` ?
No

Entry `C/C=C(/C(=C/C)c1ccc(O)cc1)c1ccc(O)cc1` : call = ?
No

How did this test come out for `Cc1ccccc1N=C(N)Nc1ccccc1C` ?
No

Record lookup: outcome of this test for `Cc1cc(C)c(N)cc1C` ?
No

What is the recorded call for this molecule in the test? `O=C1NCCN1CCO`
No

Could you check what this test reported for `OCCOCC#CCOCCO` ?
No

Returns: the outcome recorded for NC1[C@H]2CN(c3nc4c(cc3F)c(=O)c(C(=O)O)cn4-c3ccc(F)cc3F)C[C@@H]12 (some centres not stated) in this assay.
Yes

Tell me the recorded outcome of this test for `O=C1Cc2cc(Cl)ccc2N1` .
No

Short answer needed: outcome of this test for `CC1(C)[C@@H](OC(=O)CCC(=O)O)CC[C@]2(C)[C@H]3C(=O)C=C4[C@@H]5C[C@@](C)(C(=O)O)CC[C@]5(C)CC[C@@]4(C)[C@]3(C)CC[C@@H]12` ?
No

Per the assay record, what outcome was assigned to `CC(C)(C)CC(=O)OCC(=O)[C@@]1(O)CC[C@H]2[C@@H]3CCC4=CC(=O)C=C[C@]4(C)[C@H]3[C@@H](O)C[C@@]21C` ?
No

Returns: the outcome recorded for `CCCCCC#CC(=O)OC` in this assay.
No

Please indicate how the test categorized `O=C(O)c1cccc(-c2noc(-c3ccccc3F)n2)c1` .
No

Called result for CC(CCC(=O)O)C(=O)O (configuration not stated)
No

Dear all, I need the recorded test outcome for `CC(=O)c1ccc([N+](=O)[O-])cc1` , thank you.
No

====

- PROCEDURE TEXT: qHTS assay for small molecules that induce genotoxicity in human embryonic kidney cells expressing luciferase-tagged ATAD5 (AID 651632); further: nearly all actives have a fitted effect of over 15% in size
- TEST CONDITIONS: HEK293T ATAD5-luciferase induction, 16 h; series mostly up to 83.3 µM
Inconclusive results are not listed. Active and inactive are the calls of the source. Calls follow the shape of the dose curve; as a rule, active = well fitted activation curve with a large enough effect in the repeat runs; inconclusive = weak or mixed curves; inactive = no such curve, though single readings can be large or run the other way.
Permitted responses: true (1) (active), false (0) (inactive)

# outcome recorded in this test, key = `O=C1NCCN1CCO`
false (0)

====

- PROCEDURE TEXT: A CellTox Green Cytotoxicity Assay to monitor cytotoxicity in HepG2 cells - 8 hour (AID 1224890); further: nearly all actives have a fitted effect of over 45% in size
- TEST CONDITIONS: CellTox Green fluorescence; series mostly up to 76.8 µM
Records with an inconclusive call do not appear. Calls of active or inactive are those of the source. Calls come from the whole dose curve; as a rule, active = well fitted activation curve with a large enough effect in the repeat runs; inconclusive = weak or mixed curves; inactive = flat fitted curve, though single readings scatter.
Select the matching outcome among label 1 = active, label 0 = inactive

[[record]]
molecule = "CC/C=C1/OC(=O)c2ccccc21"
label_class = "label 0"

[[record]]
molecule = "COc1ccccc1N1CCN(CC(O)COc2cccc3ccccc23)CC1 (configuration not stated)"
label_class = "label 0"

[[record]]
molecule = "CC(=O)NC1(c2cccc(F)c2)CCN(CC[C@@]2(c3ccc(Cl)c(Cl)c3)CN(c3ccccc3)C(=O)CO2)CC1"
label_class = "label 0"

[[record]]
molecule = "CCCCCCCCC(CCCCCC)C(=O)O (configuration not stated)"
label_class = "label 0"

[[record]]
molecule = "C/C=C(/C(=C/C)c1ccc(O)cc1)c1ccc(O)cc1"
label_class = "label 1"

[[record]]
molecule = "CC(=O)Oc1ccc([N+](=O)[O-])cc1CCl"
label_class = "label 0"

[[record]]
molecule = "CC(C)Nc1cccnc1N1CCN(C(=O)c2cc3cc(NS(C)(=O)=O)ccc3[nH]2)CC1"
label_class = "label 0"

[[record]]
molecule = "O=C1c2ccccc2C(=O)C1(O)O"
label_class = "label 0"

[[record]]
molecule = "CCC(OCCCOC)OC(C)=O (configuration not stated)"
label_class = "label 0"

[[record]]
molecule = "COc1ccccc1N1CCN(CCCCNC(=O)c2ccc(-c3ccc(C(C)=O)cc3)cc2)CC1"
label_class = "label 0"


Recorded test outcome, item `Cc1ccc(CO)cc1`
label 0
